- test target: EP4 (Mus musculus)
- Construct: expressed in transfected cells; host or cells: CHO cells (membrane fraction)
- Sequence (P32240 whole entry): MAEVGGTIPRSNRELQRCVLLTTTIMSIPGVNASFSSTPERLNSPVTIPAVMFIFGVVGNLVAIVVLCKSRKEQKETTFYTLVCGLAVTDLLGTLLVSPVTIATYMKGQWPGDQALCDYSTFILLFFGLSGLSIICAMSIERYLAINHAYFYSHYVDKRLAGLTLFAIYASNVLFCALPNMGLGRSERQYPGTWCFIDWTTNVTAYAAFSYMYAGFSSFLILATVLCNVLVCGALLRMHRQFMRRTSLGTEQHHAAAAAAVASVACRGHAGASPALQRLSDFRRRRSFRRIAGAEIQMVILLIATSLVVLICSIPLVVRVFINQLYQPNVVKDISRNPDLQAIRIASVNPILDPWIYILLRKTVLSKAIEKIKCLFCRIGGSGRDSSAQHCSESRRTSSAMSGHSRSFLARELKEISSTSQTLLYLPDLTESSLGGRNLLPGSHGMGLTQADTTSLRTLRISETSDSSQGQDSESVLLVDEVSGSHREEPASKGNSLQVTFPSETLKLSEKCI
- assay notes: Binding assay using expression CHO cell of prostanoid receptor subtype, [3H]-PGE2 binding inhibition (EP4)
- experimental conditions: membrane fraction of CHO cells expressing mouse EP4; [3H]-PGE2 2.5 nM; Ki=IC50/(1+([C]/Kd)); read-out: Dissociation Constant Ki (μM) EP4
measure: Ki (µM)

[[record]]
compound = "O=C(O)CCCCCC[C@H]1C(=O)C[C@@H](O)[C@@H]1/C=C/[C@@H](O)Cc1cccc(CCF)c1"
number = 0.0016


(A) Cc1ccc(C[C@H](O)/C=C/[C@H]2[C@H](O)CC(=O)[C@@H]2C/C=C\CCCC(=O)O)cc1 [reference compound]
(B) CCOCc1cccc(C[C@H](O)/C=C/[C@H]2[C@H](O)CC(=O)[C@@H]2C/C=C\CCCC(=O)O)c1
(C) COCc1cccc(C[C@H](O)/C=C/[C@H]2[C@H](O)CC(=O)[C@@H]2CCCCCCC(=O)O)c1
Data request: # rank by Ki, ascending (min first) List each label, following the requested order.
Data returned: C, B, A
(C: 0.006 µM, B: 0.01 µM, A: 0.032 µM)
